B1: CPEB3 Ribozyme (parent)
chain: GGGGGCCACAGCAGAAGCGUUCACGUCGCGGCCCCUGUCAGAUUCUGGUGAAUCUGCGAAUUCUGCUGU

Variants of: B1
Assay: self-cleavage, relative activity (ratio to wild type); higher = more cleavage; co-transcriptional
Recorded self-cleavage for the following variants
result type: self-cleavage

>>> reading("A23C G25U")
0.176
>>> reading("G47C U64C")
0.956
>>> reading("G37C U53G")
0.129
>>> reading("U49C C66A")
0.77
>>> reading("U64C G68U")
0.803
>>> reading("G28A U53A")
0.198
>>> reading("G4U C39G")
0.558
>>> reading("C6G U46C")
0.41
>>> reading("G1C G65A")
0.134
>>> reading("G1C G48C")
0.215
>>> reading("A42U U46A")
1.03
>>> reading("A10C C54A")
0.896
>>> reading("U20A G48U")
0.104
>>> reading("G4A")
0.898
>>> reading("G11C C66G")
0.943
>>> reading("C6A C45A")
0.523
>>> reading("U53A U61G")
0.581
>>> reading("G4U C9U")
0.954
>>> reading("G19A U21G")
0.14
>>> reading("A8U U62A")
0.97
>>> reading("U53C C66A")
0.386
>>> reading("G5C C6U")
0.158

The measured values listed here are drawn from the RNAGym collection of RNA variant scans (doi:10.7554/elife.80360).
